Documented melting point across a set of compounds

Example results:
O=C(c1ccccc1)c1cnc2c(c1)CCC(c1ccc(Cl)c(Cl)c1)O2 (centres undefined): 155 to 158 °C
CC(C)Oc1ccc(-c2ccc3nc(C(=O)NC(Cc4ccc(OCc5ccccc5)cc4)C(=O)O)cn3c2)cc1 (centres undefined): 263 °C
COc1ccc(S(=O)(=O)n2ccc3ccnc(-c4ccccc4)c32)cc1: 149 to 151 °C
CCOC(=O)COc1ccc(C(=O)CCC(=O)O)cc1Cl: 137 to 139 °C
CCc1noc(-c2cccc3c2C(=O)N(C)Cc2c(-c4nc(CC)no4)ncn2-3)n1: 173 to 174 °C

Request: For the compound `O=C(O)c1cccc(NC(=S)Nc2ccc3c(Cl)c(OCCBr)oc(=O)c3c2)c1` , give its measured melting point value.
Result: 157 to 158 °C

Request: For the compound `CCOC(=O)c1c(NCCC(=O)c2ccccc2)c2c(Cl)cc(Cl)cc2n1C(=O)OC(C)(C)C` , give its measured melting point value.
Result: 130 to 131 °C

Request: For the compound `COC(=O)c1cc2cc(OCCn3ccnc3)ccc2s1` , give its measured melting point value.
Result: 127 to 129 °C

Request: For the compound `CCCOC(=O)c1cc(NC(=O)c2ccccc2C)ccc1Cl` , give its measured melting point value.
Result: 103 to 105 °C

Request: For the compound `Cn1ncc(N)c1NCCO` , give its measured melting point value.
Result: 94 to 97 °C

Request: For the compound Cc1ccc2c(c1)N(CC(=O)c1ccccc1C)C(=O)C(NC(=O)Nc1ccc(C)c(C(=O)O)c1)CN2C(=O)c1cccs1 (centres undefined) , give its measured melting point value.
Result: 192 to 195 °C

Request: For the compound CCOC(=O)c1csc(C2OC(COC(=O)c3ccccc3)C(O)C2O)n1 (centres undefined) , give its measured melting point value.
Result: 82 to 85 °C

Request: For the compound `CCn1ncc2c1ncc1c(NCCN(C)C)nc3cc(C)nn3c12` , give its measured melting point value.
Result: 124 to 126 °C

Request: For the compound CC(=O)SC(CC(=O)c1ccc(Oc2ccc(C(C)C)cc2)cc1)C(=O)O (centres undefined) , give its measured melting point value.
Result: 110 to 112 °C

Request: For the compound `COc1ccc2c(c1)CCc1c-2n(-c2ccccc2)c2ncccc2c1=O` , give its measured melting point value.
Result: 234 to 238 °C

Request: For the compound NCC1Cc2cccc(-c3cccc4ccccc34)c2O1 (centres undefined) , give its measured melting point value.
Result: 120 to 124 °C

Request: For the compound `COCCOCCOC(=O)C#CC(=O)c1cc(OC)c(OC)c(OC)c1` , give its measured melting point value.
Result: 33 to 34 °C

Request: For the compound `O=c1[nH]c2ccccc2n1Cc1ccccc1` , give its measured melting point value.
Result: 194 °C

Request: For the compound `O=C(NCCCCCCCCc1ccccc1)c1cc(-c2cccc(Cl)c2)c(OCCO)c(-c2cccc(Cl)c2)c1` , give its measured melting point value.
Result: 165 to 167 °C

Request: For the compound `N#Cc1ccc(N2CCN(Cc3cnc4c(c3)NC(=O)[C@@H]3CCCN43)CC2)nc1` , give its measured melting point value.
Result: 252 to 256 °C

Request: For the compound `CCn1c(C)nc2cc(C(N)=O)ccc21` , give its measured melting point value.
Result: 251 °C

Request: For the compound `COC(=O)Cc1c(O)nc(C)nc1O` , give its measured melting point value.
Result: > 200 °C

Request: For the compound `CCOC(=O)N(c1ccc(Cl)cc1)c1ccccc1N` , give its measured melting point value.
Result: 112 to 115 °C

Request: For the compound Cc1ccc(S(=O)(=O)OCC(COC(C)(C)C)OS(=O)(=O)c2ccc(C)cc2)cc1 (single isomer, unassigned; (+)) , give its measured melting point value.
Result: 70 to 71 °C

Request: For the compound CC1=C(N)C(=O)C2CC1C2(C)C (centres undefined) , give its measured melting point value.
Result: 45 to 46 °C
